Listed molecules paired with reported pIC50
Molecular target: RsASML (Ralstonia pseudosolanacearum, UniProt Q8XPM9)
Sequence (Q8XPM9 30-476 limits assumed): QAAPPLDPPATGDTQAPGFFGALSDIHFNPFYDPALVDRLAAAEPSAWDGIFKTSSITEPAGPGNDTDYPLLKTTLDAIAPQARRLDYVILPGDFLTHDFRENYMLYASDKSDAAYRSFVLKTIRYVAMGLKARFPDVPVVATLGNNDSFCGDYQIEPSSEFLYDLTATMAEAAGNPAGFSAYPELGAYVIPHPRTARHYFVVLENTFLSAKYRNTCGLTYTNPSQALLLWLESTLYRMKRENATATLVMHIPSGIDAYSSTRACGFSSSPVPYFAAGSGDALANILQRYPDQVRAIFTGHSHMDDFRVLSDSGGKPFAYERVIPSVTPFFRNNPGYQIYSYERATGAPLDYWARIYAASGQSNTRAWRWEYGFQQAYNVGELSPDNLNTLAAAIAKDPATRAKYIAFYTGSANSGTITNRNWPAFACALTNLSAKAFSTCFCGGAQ
Experiment: biochemical
On this scale, pIC50 is minus log10 of a concentration expressed in M (mol/L).

Check out these entries, answers already filled in.
Cc1cn([C@H]2C[C@H](O)[C@@H](COP(=O)(O)OP(=O)(O)OP(=O)(O)O)O2)c(=O)[nH]c1=O | 3.70
Nc1ncnc2c1ncn2[C@@H]1O[C@H](COP(=O)(O)OP(=O)(O)OP(=O)(O)O)[C@@H](O)[C@H]1O | 7.23
O=P(O)(O)O [Phosphate] | 3.58
Nc1ncnc2c1ncn2[C@@H]1O[C@H](CO)[C@@H](O)[C@H]1O | 3.61
C[N+](C)(C)CCOP(=O)([O-])OC[C@H](O)CO | 4.19
NC(=O)C1=CN([C@@H]2O[C@H](COP(=O)(O)OP(=O)(O)OC[C@H]3O[C@@H](n4cnc5c(N)ncnc54)[C@H](OP(=O)(O)O)[C@@H]3O)[C@@H](O)[C@H]2O)C=CC1 | 4.28
Nc1ncnc2c1ncn2[C@@H]1O[C@H](COP(=O)(O)O)[C@@H](O)[C@H]1O | 7.12
O=c1ccn([C@@H]2O[C@H](COP(=O)(O)OP(=O)(O)OP(=O)(O)O)[C@@H](O)[C@H]2O)c(=O)[nH]1 | 2.87
NC(=O)c1ccc[n+]([C@@H]2O[C@H](COP(=O)(O)OP(=O)(O)OC[C@H]3O[C@@H](n4cnc5c(N)ncnc54)[C@H](O)[C@@H]3O)[C@@H](O)[C@H]2O)c1 | 7.18
Nc1ccn([C@@H]2O[C@H](COP(=O)(O)OP(=O)(O)OP(=O)(O)O)[C@@H](O)[C@H]2O)c(=O)n1 | 2.82

Ask: Looking for the measured pIC50 of O=P(O)(O)OC[C@H](O)CO [L-α-glycerolphosphate] , can you help?
Result: 3.13

Ask: Dear colleague, I am looking for the recorded pIC50 of the following molecule: C[N+](C)(C)CCOP(=O)([O-])O
Result: 2.35

Ask: Request the reported pIC50 associated with Nc1nc2c(ncn2[C@@H]2O[C@H](COP(=O)(O)OP(=O)(O)OP(=O)(O)O)[C@@H](O)[C@H]2O)c(=O)[nH]1
Result: 4.35

Ask: // lookup pIC50 for Nc1ncnc2c1ncn2[C@@H]1O[C@H](COP(=O)(O)OP(=O)(O)O)[C@@H](O)[C@H]1O
Result: 7.15

Ask: Dear colleague, I am looking for the recorded pIC50 of the following molecule: Cc1cn([C@H]2C[C@H](O)[C@@H](COP(=O)(O)O)O2)c(=O)[nH]c1=O
Result: 4.45
